- measured.on: baculovirus-expressed ALK (Homo sapiens, UniProt Q9UM73)
- Construct: host or cells: baculovirus expression system
- Sequence (Q9UM73 19-1620): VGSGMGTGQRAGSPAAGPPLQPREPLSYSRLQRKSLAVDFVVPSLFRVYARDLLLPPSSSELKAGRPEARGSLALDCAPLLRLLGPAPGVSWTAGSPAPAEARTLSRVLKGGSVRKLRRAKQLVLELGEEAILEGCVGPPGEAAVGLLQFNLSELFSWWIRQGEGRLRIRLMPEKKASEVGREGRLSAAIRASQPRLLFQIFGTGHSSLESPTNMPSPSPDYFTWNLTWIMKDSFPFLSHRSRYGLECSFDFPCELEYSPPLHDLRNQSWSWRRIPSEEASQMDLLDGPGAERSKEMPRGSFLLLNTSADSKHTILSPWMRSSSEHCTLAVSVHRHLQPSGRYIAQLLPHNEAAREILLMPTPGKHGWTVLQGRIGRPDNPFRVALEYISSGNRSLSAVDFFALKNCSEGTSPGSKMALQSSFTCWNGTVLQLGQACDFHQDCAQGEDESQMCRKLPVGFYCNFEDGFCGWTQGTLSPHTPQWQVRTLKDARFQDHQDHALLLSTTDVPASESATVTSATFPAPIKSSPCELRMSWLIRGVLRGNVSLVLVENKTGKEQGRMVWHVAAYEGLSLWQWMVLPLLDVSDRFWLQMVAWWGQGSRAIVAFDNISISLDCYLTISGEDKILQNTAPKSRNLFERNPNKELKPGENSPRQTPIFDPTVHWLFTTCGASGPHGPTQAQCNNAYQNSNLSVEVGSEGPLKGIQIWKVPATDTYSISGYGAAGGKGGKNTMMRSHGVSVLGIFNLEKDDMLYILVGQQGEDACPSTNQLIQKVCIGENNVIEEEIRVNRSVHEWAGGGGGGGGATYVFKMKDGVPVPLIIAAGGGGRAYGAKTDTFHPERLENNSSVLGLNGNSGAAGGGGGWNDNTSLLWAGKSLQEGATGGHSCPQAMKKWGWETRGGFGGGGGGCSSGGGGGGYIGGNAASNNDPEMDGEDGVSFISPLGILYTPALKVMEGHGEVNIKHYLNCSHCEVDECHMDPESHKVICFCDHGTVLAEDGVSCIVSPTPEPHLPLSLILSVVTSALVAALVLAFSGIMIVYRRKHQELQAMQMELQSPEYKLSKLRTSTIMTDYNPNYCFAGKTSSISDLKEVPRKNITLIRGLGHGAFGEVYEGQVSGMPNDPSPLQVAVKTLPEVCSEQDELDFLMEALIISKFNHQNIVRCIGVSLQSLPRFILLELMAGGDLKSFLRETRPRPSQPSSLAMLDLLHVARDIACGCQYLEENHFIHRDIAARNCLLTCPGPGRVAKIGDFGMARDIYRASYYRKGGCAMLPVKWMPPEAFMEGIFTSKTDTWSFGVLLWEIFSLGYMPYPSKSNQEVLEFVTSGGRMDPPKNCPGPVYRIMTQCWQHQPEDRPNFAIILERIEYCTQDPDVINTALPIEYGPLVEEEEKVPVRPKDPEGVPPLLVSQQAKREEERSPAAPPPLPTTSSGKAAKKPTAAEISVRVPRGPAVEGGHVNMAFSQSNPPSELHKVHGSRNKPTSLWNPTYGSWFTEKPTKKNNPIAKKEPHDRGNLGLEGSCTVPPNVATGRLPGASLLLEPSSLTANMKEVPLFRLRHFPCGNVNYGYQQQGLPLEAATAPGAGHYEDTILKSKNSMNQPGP
- test.details: ALK Kinase Assay (ELISA-type, time-resolved fluorescence)
- Format: biochemical
- condition.summary: 1 μM ATP (Km level), 30 ng/ml ALK, 37° C., 15 minutes; read-out: ALK Activity (ALK kinase inhibition, IC50 class)
property.name: IC50

Example entries and their recorded answers appear below.
molecule | result
COc1cc2c(cc1Nc1ncc(Cl)c(Nc3cc(C#N)ccc3OC)n1)CCN(CC(=O)N(C)C)CC2 [Example 1149] | < 100 nM
Clc1cnc(Nc2ccc3c(c2)CCC(N2CCOCC2)CC3)nc1Nc1ccccc1-n1cccn1 (stereo not shown) [Example 1034] | < 100 nM
CNC(=O)c1sccc1Nc1nc(Nc2ccc3c(c2)OCCCN3C(=O)OC(C)C)ncc1Cl [Example 1435] | 100 to 1000 nM

# input for lookup
API: value(readout=IC50, system=baculovirus-expressed ALK (Homo sapiens, UniProt Q9UM73)) for record O=C1CCCc2ccc(Nc3ncc(Cl)c(Nc4c(F)cccc4OC4CCOCC4)n3)cc2N1 [Example 1281] 100 to 1000 nM
